Where do the numbers come from? From ChEMBL document CHEMBL1133207.

- EXPERIMENT_NOTES: In vivo microfilariacidal activity against Acanthocheilonema viteae infection in Mastomys natalensis at 200 mg/kg for 5 days after peroral administration
- Format: functional
- APPLIED_CONDITIONS: route oral
Consider the following compounds; for each one, report its Reduction.
Answers are plain numbers, in %.

Study these solved cases before continuing.
COMPOUND	MEASUREMENT_KIND	NUMERIC_READOUT
N#Cc1ccc(OCCNc2ccnc3cc(Cl)ccc23)cc1	Reduction	0
OCCNc1ccnc2cc(Cl)ccc12	Reduction	86
O=[N+]([O-])c1cc2c(NCCO)ccnc2cc1Cl	Reduction	0
CC(N)C(=O)N1CCN(CCNc2ccnc3cc(Cl)ccc23)CC1 (centres undefined)	Reduction	0
CC(C)(C)OC(=O)NCC(=O)N1CCN(CCNc2ccnc3cc(Cl)ccc23)CC1	Reduction	0

# batch: return Reduction for each of the 4 compounds below
1. CC(C)(C)OC(=O)NC(Cc1ccccc1)C(=O)N1CCN(CCNc2ccnc3cc(Cl)ccc23)CC1 (centres undefined)
2. CCN(CC)C(=O)N1CCN(C)CC1.O=C(O)CC(O)(CC(=O)O)C(=O)O [DIETHYLCARBAMAZINE CITRATE]
3. O=C(O)C(CCCCNc1ccnc2cc(Cl)ccc12)Nc1ccnc2cc(Cl)ccc12 (centres undefined)
4. O=[N+]([O-])c1ccc(NNc2ccnc3cc(Cl)ccc23)cc1

[0, 90, 85, 41]

###

Consider the following molecules; for each one, report its Reduction.
- EXPERIMENT_NOTES: In vivo macrofilaricidal activity against Acanthocheilonema viteae infection in Mastomys natalensis at 200 mg/kg for 5 days after peroral administration
- Type: functional
- APPLIED_CONDITIONS: route oral
Give bare numbers, in %.

MOLECULE	Reduction / %
CC(C)(C)OC(=O)NCC(=O)N1CCN(CCNc2ccnc3cc(Cl)ccc23)CC1	0
O=[N+]([O-])c1ccc(NNc2ccnc3cc(Cl)ccc23)cc1	78
O=[N+]([O-])c1cc2c(NCCO)ccnc2cc1Cl	58
CC(C)(C)OC(=O)NC(Cc1ccccc1)C(=O)N1CCN(CCNc2ccnc3cc(Cl)ccc23)CC1 (centres undefined)	0
CCN(CC)C(=O)N1CCN(C)CC1.O=C(O)CC(O)(CC(=O)O)C(=O)O [DIETHYLCARBAMAZINE CITRATE]	0
CC(N)C(=O)N1CCN(CCNc2ccnc3cc(Cl)ccc23)CC1 (centres undefined)	0
OCCNc1ccnc2cc(Cl)ccc12	22
O=C(O)C(CCCCNc1ccnc2cc(Cl)ccc12)Nc1ccnc2cc(Cl)ccc12 (centres undefined)	0

Now for another entry.
Value lookup for Reduction; key = N#Cc1ccc(OCCNc2ccnc3cc(Cl)ccc23)cc1
56
